These measurements were taken from patent US4996219A.

# Lookup of reported IC50 keyed by entry
system: Meth A fibrosaccoma cell line; test: Tumor-growth Inhibition Test (TGI); assay type: cell-based, mice; conditions: Mus musculus, Meth-A, 48 h, 3H thymidine incorporation; Imexon and Ex. 1: mean ± standard deviation of n experiments, others: single tests No. 1-3

C=C1NC(=O)N(CCC)C1=N : 7.5 µg/mL
C=C1NC(=O)N(Cc2ccccc2)C1=N : 2.8 µg/mL
C=C1NC(=O)N(C)C1=N : 4.2 µg/mL
N=C1NC(=O)N2CC12 (centres unmarked) [Imexon, reference compound] : 11.3 µg/mL
C=C1NC(=O)N(c2ccccc2)C1=N : < 3 µg/mL

-- ask Missing value: IC50, Meth A fibrosaccoma cell line, entry "C=C1NC(=O)NC1=N" . Fill in?
-- reply > 10.3 µg/mL

-- ask Missing value: IC50, Meth A fibrosaccoma cell line, entry "C=C1NC(=O)N(Cc2ccncc2)C1=N" . Fill in?
-- reply 3.9 µg/mL

-- ask Missing value: IC50, Meth A fibrosaccoma cell line, entry "CC=C1NC(=O)NC1=N" . Fill in?
-- reply 22.6 µg/mL
